Overview of recorded IC50 for various compounds
target: Tek (Homo sapiens, UniProt Q02763)

Sample records with IC50:
• Nc1nc2ccccc2n1-c1ncnc(Nc2cccc(Cl)c2)n1 = 1.18 to 7.11 µM
• COc1cc(OC)nc(Nc2ncnc(-n3c(=O)[nH]c4ccccc43)n2)n1 = 1.09 to 6.55 µM
• COc1ccc(CNc2nc3ccccc3n2-c2ncnc(Nc3cc(OC)c(OC)c(OC)c3)n2)cc1 = > 8.76 µM
• COc1cc(Nc2ncnc(NN3CCOCC3)n2)cc(OC)c1OC = > 12.4 µM

Q) What is its IC50 for Tek (Homo sapiens, UniProt Q02763)? Entry: "COc1cc(Nc2ncnc(-n3ccc4cc(F)ccc43)n2)cc(OC)c1OC"
A) > 11.4 µM

---

molecular target: EGFR (Homo sapiens); construct: Kinases are expressed as either kinase domains or full length constructs; made in house; test: Kinase inhibition assay (33P transfer), EGFR; type: biochemical; details: Table 2, kinase inhibition class; read-out: EGFR-1
Sequence (P00533 25-1210, species assumed): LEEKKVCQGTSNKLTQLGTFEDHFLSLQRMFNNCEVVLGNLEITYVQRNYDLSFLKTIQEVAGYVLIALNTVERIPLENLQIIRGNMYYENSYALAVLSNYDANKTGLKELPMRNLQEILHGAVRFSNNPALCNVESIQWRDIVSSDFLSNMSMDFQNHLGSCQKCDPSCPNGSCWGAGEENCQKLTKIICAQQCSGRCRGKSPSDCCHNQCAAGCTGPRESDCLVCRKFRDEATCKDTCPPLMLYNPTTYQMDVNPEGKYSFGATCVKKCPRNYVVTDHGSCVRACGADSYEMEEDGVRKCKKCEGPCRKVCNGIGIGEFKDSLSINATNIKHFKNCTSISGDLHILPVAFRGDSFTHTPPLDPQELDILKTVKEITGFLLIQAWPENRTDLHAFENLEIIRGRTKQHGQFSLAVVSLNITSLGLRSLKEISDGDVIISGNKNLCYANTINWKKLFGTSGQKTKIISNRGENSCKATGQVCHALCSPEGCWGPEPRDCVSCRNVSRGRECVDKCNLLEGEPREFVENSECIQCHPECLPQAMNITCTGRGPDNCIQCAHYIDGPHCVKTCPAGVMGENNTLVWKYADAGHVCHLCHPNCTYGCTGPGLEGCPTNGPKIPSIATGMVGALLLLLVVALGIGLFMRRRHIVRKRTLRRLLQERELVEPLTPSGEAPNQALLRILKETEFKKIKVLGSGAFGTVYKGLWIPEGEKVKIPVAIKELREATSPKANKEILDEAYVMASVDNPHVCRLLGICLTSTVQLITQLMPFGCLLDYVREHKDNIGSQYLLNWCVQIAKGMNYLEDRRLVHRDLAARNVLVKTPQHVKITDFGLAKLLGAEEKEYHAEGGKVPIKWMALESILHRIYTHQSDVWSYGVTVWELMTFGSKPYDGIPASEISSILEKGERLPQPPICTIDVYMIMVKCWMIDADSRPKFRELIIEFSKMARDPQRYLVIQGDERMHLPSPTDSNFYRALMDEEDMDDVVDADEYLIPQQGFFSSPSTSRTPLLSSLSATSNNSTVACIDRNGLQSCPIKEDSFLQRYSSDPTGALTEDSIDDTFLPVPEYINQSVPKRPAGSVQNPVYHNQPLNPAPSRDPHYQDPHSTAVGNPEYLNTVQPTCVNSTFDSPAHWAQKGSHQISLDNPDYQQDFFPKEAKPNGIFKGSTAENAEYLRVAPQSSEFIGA
pIC50: −log10 of the molar value.
quantity-kind: pIC50

- Clc1cc(Cl)cc(Nc2ncnc(-n3cccc3)n2)c1: < 4.83
- C#Cc1cccc(Nc2ncnc(Nc3ccc(OC)c(OC)c3)n2)c1: > 5.94
- COc1cc(Nc2ncnc(Nc3cccc(C(=O)O)c3)n2)cc(OC)c1OC: > 6.00
- COc1cc(Nc2ncnc(N3CCN(C(=O)OC(C)(C)C)CC3)n2)cc(OC)c1OC: < 5.00
- COc1cc(Nc2ncnc(Nc3nc4ccc(F)cc4s3)n2)cc(OC)c1OC: < 4.98
- Clc1cccc(Nc2ncnc(-n3cccc3)n2)c1: < 4.78
- Cc1ccc2c(c1)CCCN2c1ncnc(NCc2cccnc2)n1: < 4.87
- O=c1[nH]c2ccccc2n1-c1ncnc(Nc2ccc(-c3cnco3)cc2)n1: < 4.92

Q) Endpoint output: pIC50 of "COc1cc(Nc2ncnc(Nc3cccc(Cl)c3)n2)cc(OC)c1OC" . Value?
A) > 5.99

Q) Endpoint output: pIC50 of "CCOC(=O)Cc1ccc(Nc2ncnc(Nc3cc(OC)c(OC)c(OC)c3)n2)cc1" . Value?
A) > 6.04

---

target: PDGFRB (Homo sapiens, UniProt P09619); construct: Kinases are expressed as either kinase domains or full length constructs; made in house; test: Kinase inhibition assay (33P transfer), PDGFRB; format: biochemical; details: read-out: PDGFRB-1
Sequence (P09619 33-1106, species assumed): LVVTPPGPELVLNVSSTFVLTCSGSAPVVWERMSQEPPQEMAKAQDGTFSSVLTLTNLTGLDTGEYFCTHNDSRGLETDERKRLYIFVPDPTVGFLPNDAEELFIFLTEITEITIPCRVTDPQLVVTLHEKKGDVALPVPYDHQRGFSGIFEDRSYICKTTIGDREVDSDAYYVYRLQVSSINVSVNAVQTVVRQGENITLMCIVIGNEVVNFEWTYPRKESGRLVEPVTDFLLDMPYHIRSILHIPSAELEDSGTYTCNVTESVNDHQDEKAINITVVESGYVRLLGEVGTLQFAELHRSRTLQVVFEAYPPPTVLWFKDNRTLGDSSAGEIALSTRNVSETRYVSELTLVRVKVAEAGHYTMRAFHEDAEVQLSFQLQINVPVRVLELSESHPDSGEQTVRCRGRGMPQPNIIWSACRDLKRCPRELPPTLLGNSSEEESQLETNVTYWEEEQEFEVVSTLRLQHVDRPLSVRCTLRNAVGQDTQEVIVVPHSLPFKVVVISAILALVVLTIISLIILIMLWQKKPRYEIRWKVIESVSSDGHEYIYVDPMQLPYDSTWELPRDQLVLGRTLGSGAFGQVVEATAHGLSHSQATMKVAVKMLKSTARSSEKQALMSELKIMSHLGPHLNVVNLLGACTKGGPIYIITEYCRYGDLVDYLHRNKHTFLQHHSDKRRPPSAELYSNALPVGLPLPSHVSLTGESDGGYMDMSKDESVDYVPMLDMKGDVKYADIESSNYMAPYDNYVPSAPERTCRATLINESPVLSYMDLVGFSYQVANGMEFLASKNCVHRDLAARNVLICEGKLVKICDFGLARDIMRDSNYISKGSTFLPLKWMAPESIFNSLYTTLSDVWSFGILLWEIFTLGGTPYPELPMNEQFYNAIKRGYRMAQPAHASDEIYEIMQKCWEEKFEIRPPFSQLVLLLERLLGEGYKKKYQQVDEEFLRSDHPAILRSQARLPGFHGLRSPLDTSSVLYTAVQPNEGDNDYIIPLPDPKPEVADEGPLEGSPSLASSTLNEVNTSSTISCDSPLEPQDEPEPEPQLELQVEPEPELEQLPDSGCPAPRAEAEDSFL
Overview of recorded IC50 for various compounds

Sample records with IC50:
- Nc1nc2ccccc2n1-c1ncnc(Nc2ccc(N3CCOCC3)cc2)n1: 6180 to 9010 nM
- C=CCN(c1ccc(Cl)cc1)c1ncnc(Nc2cc(OC)c(OC)c(OC)c2)n1: < 935 nM
- COc1ccc(Nc2ncnc(Nc3ccc(C)c(O)c3)n2)cc1OC: < 1130 nM

Below: the item to evaluate.
Q) Endpoint output: IC50 of "COc1ccc2c(c1)c(CCNC(C)=O)cn2-c1ncnc(Nc2cc(OC)c(OC)c(OC)c2)n1" . Value?
A) < 812 nM

---

molecular target: Lck (Homo sapiens, UniProt P06239); construct: Kinases are expressed as either kinase domains or full length constructs; made in house; assay: Kinase inhibition assay (33P transfer), Lck; format: biochemical; conditions: read-out: Lck-1
Sequence (P06239 whole entry, species assumed, the tested form may be a part): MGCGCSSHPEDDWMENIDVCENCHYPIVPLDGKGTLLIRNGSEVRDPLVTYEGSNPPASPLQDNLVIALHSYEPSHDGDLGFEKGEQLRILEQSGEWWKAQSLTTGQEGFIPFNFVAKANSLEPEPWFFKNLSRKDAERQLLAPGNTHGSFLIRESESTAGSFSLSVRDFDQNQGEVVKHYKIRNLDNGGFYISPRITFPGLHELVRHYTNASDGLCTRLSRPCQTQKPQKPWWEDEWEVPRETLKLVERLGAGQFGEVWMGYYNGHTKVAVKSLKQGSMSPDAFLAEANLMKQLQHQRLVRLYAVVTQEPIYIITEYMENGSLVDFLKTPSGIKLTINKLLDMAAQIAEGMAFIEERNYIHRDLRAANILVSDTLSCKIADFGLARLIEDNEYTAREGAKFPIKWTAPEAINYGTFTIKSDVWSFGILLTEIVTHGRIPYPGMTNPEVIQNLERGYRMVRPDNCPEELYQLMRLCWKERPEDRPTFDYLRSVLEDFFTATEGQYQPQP
Overview of recorded IC50 for various compounds

Q) Endpoint output: IC50 of CC(C)(C)c1ccc(Nc2ncnc(-n3c(N)nc4ccccc43)n2)cc1 [Compound 525] . Value?
A) 6.68 to 9.74 µM

---

Overview of recorded pIC50 for various compounds
target: AKT (Homo sapiens, UniProt Q9Y243); construct: Kinases are expressed as either kinase domains or full length constructs; made in house; experiment: Kinase inhibition assay (33P transfer), AKT; assay type: biochemical; details: Table 2, kinase inhibition class; read-out: AKT3-1
Sequence (Q9Y243 whole entry, the tested form may be a part): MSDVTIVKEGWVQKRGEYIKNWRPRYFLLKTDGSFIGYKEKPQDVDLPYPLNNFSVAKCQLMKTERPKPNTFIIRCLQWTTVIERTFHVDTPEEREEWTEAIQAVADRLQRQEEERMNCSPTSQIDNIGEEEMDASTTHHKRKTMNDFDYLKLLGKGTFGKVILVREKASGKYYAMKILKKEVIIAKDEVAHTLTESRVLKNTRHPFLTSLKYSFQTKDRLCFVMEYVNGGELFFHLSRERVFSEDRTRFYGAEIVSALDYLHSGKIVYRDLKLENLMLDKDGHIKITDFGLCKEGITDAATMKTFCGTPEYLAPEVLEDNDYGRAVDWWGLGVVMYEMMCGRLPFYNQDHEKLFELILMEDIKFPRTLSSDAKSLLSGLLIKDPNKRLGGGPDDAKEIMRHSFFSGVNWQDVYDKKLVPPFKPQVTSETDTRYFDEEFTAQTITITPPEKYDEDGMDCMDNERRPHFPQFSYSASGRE
pIC50: −log10 of the molar value.

- COc1ccc(Nc2ncnc(Nc3ccc(C)c(O)c3)n2)cc1OC: < 4.90
- COc1cc(Nc2ncnc(Nc3ccc(Br)cc3)n2)cc(OC)c1OC: < 4.98
- COc1ccc(-c2ncnc(Nc3cc(OC)c(OC)c(OC)c3)n2)cc1OC: < 4.95

Q) Endpoint output: pIC50 of "Cc1ccc2c(c1)CCCN2c1ncnc(Nc2cccc(CO)c2)n1" . Value?
A) < 4.89

---

molecular target: Lck (Homo sapiens, UniProt P06239); construct: Kinases are expressed as either kinase domains or full length constructs; made in house; experiment: Kinase inhibition assay (33P transfer), Lck; type: biochemical; details: Table 3; read-out: Lck-1
quantity-kind: IC50

Q) Endpoint output: IC50 of "COc1cc(Nc2ncnc(Nc3c(C)n(C)n(-c4ccccc4)c3=O)n2)cc(OC)c1OC" . Value?
A) > 9.71 µM

Q) Endpoint output: IC50 of "COc1cc(Nc2ncnc(-n3c(N)nc4ccccc43)n2)cc(OC)c1OC" . Value?
A) < 1.02 µM

Q) Endpoint output: IC50 of "OCCCNc1ncnc(-c2ccccc2)n1" . Value?
A) > 19.5 µM

Q) Endpoint output: IC50 of "COc1cc(Nc2ncnc(-n3c(NCC(C)C)nc4ccccc43)n2)cc(OC)c1OC" . Value?
A) < 0.89 µM

Q) Endpoint output: IC50 of "Fc1ccc(Nc2ncnc(-n3cccc3)n2)cc1" . Value?
A) > 17.6 µM

---

biological target: Lck (Homo sapiens, UniProt P06239); construct: Kinases are expressed as either kinase domains or full length constructs; made in house; assay: Kinase inhibition assay (33P transfer), Lck; assay type: biochemical; settings: read-out: Lck-1
pIC50: −log10 of the molar value.
quantity-kind: pIC50

* Nc1nc2ccccc2n1-c1ncnc(Nc2cccc(CC(=O)NCc3ccccn3)c2)n1 | 5.11 to 5.27
* CC(C)(C)OC(=O)NCc1cccc(Nc2ncnc(Nc3cc(-c4ccco4)n[nH]3)n2)c1 | 5.27 to 6.05
* COc1ccc(Nc2ncnc(N3CCCc4ccc(C)cc43)n2)cc1OC | 5.20 to 5.97

Q) Endpoint output: pIC50 of "COc1cc(Nc2ncnc(-c3ccc(NCCCO)nc3)n2)cc(OC)c1OC" . Value?
A) 4.96 to 5.07

---

target: IGFR-1 (Homo sapiens); construct: Kinases are expressed as either kinase domains or full length constructs; made in house; assay: Kinase inhibition assay, IGFR-1 (Table 2); assay type: biochemical; conditions: Table 2, kinase inhibition class
Sequence (P08069 31-1367): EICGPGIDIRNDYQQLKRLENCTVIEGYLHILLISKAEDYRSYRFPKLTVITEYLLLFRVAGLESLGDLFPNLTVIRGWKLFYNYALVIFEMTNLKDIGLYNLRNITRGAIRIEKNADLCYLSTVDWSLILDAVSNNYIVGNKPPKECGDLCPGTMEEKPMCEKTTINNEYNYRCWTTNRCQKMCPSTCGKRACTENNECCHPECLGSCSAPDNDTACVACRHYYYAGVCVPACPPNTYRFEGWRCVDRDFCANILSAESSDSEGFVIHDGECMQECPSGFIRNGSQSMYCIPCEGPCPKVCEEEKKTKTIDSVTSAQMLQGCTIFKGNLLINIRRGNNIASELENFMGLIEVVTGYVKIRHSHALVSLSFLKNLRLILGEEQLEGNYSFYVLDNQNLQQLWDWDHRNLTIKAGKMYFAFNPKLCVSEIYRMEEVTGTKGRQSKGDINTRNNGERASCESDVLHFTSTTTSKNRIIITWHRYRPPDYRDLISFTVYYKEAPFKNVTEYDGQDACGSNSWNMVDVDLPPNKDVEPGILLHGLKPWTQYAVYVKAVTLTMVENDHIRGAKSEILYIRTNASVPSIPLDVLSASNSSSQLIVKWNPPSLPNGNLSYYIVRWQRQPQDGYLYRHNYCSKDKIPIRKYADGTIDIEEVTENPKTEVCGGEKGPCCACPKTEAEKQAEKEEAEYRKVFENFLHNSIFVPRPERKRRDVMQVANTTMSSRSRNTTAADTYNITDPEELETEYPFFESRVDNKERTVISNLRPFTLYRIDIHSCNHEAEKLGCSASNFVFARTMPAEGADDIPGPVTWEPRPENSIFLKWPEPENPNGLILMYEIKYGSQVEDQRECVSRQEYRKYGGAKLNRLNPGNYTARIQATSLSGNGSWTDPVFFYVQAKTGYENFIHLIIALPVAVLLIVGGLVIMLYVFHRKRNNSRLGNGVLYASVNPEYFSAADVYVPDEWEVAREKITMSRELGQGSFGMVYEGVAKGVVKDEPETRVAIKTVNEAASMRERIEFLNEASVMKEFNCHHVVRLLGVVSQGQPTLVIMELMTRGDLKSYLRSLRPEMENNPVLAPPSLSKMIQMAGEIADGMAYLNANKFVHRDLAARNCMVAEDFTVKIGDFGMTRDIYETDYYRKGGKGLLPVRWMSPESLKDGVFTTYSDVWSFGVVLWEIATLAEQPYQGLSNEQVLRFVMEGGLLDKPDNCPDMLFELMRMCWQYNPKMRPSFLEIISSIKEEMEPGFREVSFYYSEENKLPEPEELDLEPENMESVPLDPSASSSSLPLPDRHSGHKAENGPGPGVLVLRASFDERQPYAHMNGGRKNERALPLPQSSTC
pIC50: −log10 of the molar value.
quantity-kind: pIC50

Sample records with pIC50:
• CC(C)Nc1ncccc1-c1ncnc(Nc2ccc(C(N)=O)cc2)n1 = < 4.89
• COc1cc(Nc2ncnc(NC3CCc4ccccc43)n2)cc(OC)c1OC (stereo not shown) = < 4.94
• COc1ccc(CNc2ncnc(Nc3ccc4c(cnn4Cc4ccccc4)c3)n2)cc1OC = 5.02 to 5.13
• COC(=O)c1ccc(-c2cc(Nc3ncnc(Nc4cccc(CC(=O)O)c4)n3)[nH]n2)cc1 = 5.27 to 6.05
• COc1cc(Nc2ncnc(-n3ncc(-c4ccccc4)c3N)n2)cc(OC)c1OC = 5.24 to 6.02
• COc1cc(Nc2ncnc(NC(=O)NCCc3ccccc3)n2)cc(OC)c1OC = < 4.97

Q) Endpoint output: pIC50 of "CCN(c1ccccc1)c1ncnc(Nc2cc(OC)c(OC)c(OC)c2)n1" . Value?
A) 5.20 to 5.98

Q) Endpoint output: pIC50 of CCN(CC)C(=O)C1CCCN(c2ncnc(Nc3cc(OC)c(OC)c(OC)c3)n2)C1 (stereo not shown) . Value?
A) < 4.99

Q) Endpoint output: pIC50 of "CCN(CC)CCOc1ccc(Nc2ncnc(Nc3cc(OC)c(OC)c(OC)c3)n2)cc1OC" . Value?
A) < 5.04

Q) Endpoint output: pIC50 of "Cc1cccc(Nc2ncnc(Nc3ccc4c(cnn4Cc4ccccc4)c3)n2)c1" . Value?
A) 4.96 to 5.07

---

Overview of recorded IC50 for various compounds
molecular target: AKT (Homo sapiens); construct: Kinases are expressed as either kinase domains or full length constructs; made in house; assay: Kinase inhibition assay (33P transfer), AKT; format: biochemical; details: Table 2, kinase inhibition class; read-out: AKT3-1

Sample records with IC50:
• COc1ccc(CNc2ncnc(Nc3cc(OC)c(OC)c(OC)c3)n2)cc1 = > 11.3 µM
• COc1cc(Nc2ncnc(N3CCN(c4ccccn4)CC3)n2)cc(OC)c1OC = > 10.6 µM
• O=c1[nH]c2ccccc2n1-c1ncnc(Nc2cccc(Cl)c2)n1 = > 13.3 µM
• COc1cc(Nc2ncnc(-c3cccnc3NCc3ccccn3)n2)cc(OC)c1OC = > 10.1 µM
• COc1cc(Nc2ncnc(-c3cccnc3NCc3ccccc3F)n2)cc(OC)c1OC = > 9.73 µM

Q) Endpoint output: IC50 of "COc1cc(Nc2ncnc(-n3c(Nc4cccc(F)c4)nc4ccccc43)n2)cc(OC)c1OC" . Value?
A) > 9.23 µM

Q) Endpoint output: IC50 of "CC(C)(C)c1cc(Nc2ncnc(Nc3ccc(C(N)=O)cc3)n2)[nH]n1" . Value?
A) 1.14 to 6.81 µM

Q) Endpoint output: IC50 of "COc1cc(Nc2ncnc(-n3c(NCc4ccc5c(c4)OCO5)nc4ccccc43)n2)cc(OC)c1OC" . Value?
A) 4.55 to 6.63 µM

Q) Endpoint output: IC50 of "COc1cc(Nc2ncnc(-c3c(O)[nH]c4ccccc34)n2)cc(OC)c1OC" . Value?
A) > 11.4 µM

Q) Endpoint output: IC50 of "COc1cc(Nc2ncnc(-n3c(NCc4cccc(C)c4)nc4ccccc43)n2)cc(OC)c1OC" . Value?
A) > 9.04 µM

Q) Endpoint output: IC50 of "C=CCN(c1ccc(Cl)cc1)c1ncnc(Nc2cc(OC)c(OC)c(OC)c2)n1" . Value?
A) > 10.5 µM

Q) Endpoint output: IC50 of "COc1cc(Nc2ncnc(N[C@H](CO)c3ccccc3)n2)cc(OC)c1OC" . Value?
A) > 11.3 µM

Q) Endpoint output: IC50 of "COCCOc1ccc(Nc2ncnc(Nc3ccc4[nH]ccc4c3)n2)cc1OCCOC" . Value?
A) > 9.99 µM

The measurements presented in this section are drawn from patent US7074789B2.
